Origin of measurements: PubChem BioAssay (NCI)

# Tested on: HT29 colon
# MEASUREMENT_PROTOCOL: NCI-60 one-dose screen, 48 h
# CONDITION_LABEL: 10 µM unless noted
This is part of a sample that, as a whole, favours compounds with a hit. Of some 83,000 tested, about 20% had one in any assay. The source made the active and inactive calls. The calls were made as follows: active = growth percent below 10; inactive = the rest.
Possible outcomes: active, inactive

>  <MOLECULE>
CCOC(=O)C1=C(c2ccccc2)N=C2SC=C(c3ccc(Cl)cc3)N2C1c1ccc(Cl)cc1 (centres undefined)

>  <CLASSIFICATION>
inactive

$$$$
>  <MOLECULE>
COc1ccc2c(c1)c(-c1nc(-c3c[nH]c4ccncc34)cs1)cn2C

>  <CLASSIFICATION>
active

$$$$
>  <MOLECULE>
Cn1cc(-c2csc(-c3cn(C(=O)OC(C)(C)C)c4ccc(Br)cc34)n2)c2ccnc(Cl)c21

>  <CLASSIFICATION>
inactive

$$$$
>  <MOLECULE>
Cc1cc(C(=O)O)c(C)n1-c1cccc(C(=O)O)c1

>  <CLASSIFICATION>
inactive

$$$$
>  <MOLECULE>
COc1ccc(C/C(C)=C(\c2ccc(Cl)cc2)c2ccc(OCCN3CCCCC3)cc2)cc1

>  <CLASSIFICATION>
inactive

$$$$
>  <MOLECULE>
COc1cc(-c2nc3sccn3c2-c2ccnc(NCCNS(=O)(=O)c3ccccc3)n2)ccc1F

>  <CLASSIFICATION>
inactive

$$$$
>  <MOLECULE>
CCOc1ccccc1Cn1ccnc1CCc1c(Cl)c(O)cc(O)c1C(=O)OC

>  <CLASSIFICATION>
inactive

$$$$
>  <MOLECULE>
COC(=O)/C=C1/SC(=Nc2ccc(C(F)(F)F)cc2)N(CCc2c[nH]c3ccc(O)cc23)C1=O

>  <CLASSIFICATION>
active

$$$$
>  <MOLECULE>
COCCOc1cc2ncnc(N3CCN(c4ncc(S(=O)(=O)N5CCCCC5)cn4)CC3)c2cc1OCCOC

>  <CLASSIFICATION>
inactive

$$$$

* * *

# Tested on: A498 renal
# MEASUREMENT_PROTOCOL: NCI-60 one-dose screen, 48 h
# CONDITION_LABEL: 10 µM unless noted
Compounds without any hit were thinned out: in the full panel of roughly 83,000, 20% have a hit. Calls of active or inactive are those of the source. The calls were made as follows: active = growth percent below 10; inactive = the rest.
Possible outcomes: class 1 for active, class 0 for inactive

>  <MOLECULE>
Cc1ccccc1/C=C/C(=O)c1cccc(OCCCCOc2cccc(C(=O)/C=C/c3ccccc3C)c2)c1

>  <CLASSIFICATION>
class 0

$$$$
>  <MOLECULE>
C1CN(SSN2CCOCC2)CCO1

>  <CLASSIFICATION>
class 0

$$$$
>  <MOLECULE>
COC(=O)[C@]1(C)CCC[C@]2(C)[C@H]3C[C@H]4C(C(C)C)=C[C@]3(CC[C@H]21)[C@@H]1C(=O)CC[C@H](OCCC#N)[C@@H]14

>  <CLASSIFICATION>
class 0

$$$$
>  <MOLECULE>
C=CC[Se]C(=O)Cc1c(C)n(C(=O)c2ccc(Cl)cc2)c2ccc(OC)cc12

>  <CLASSIFICATION>
class 1

$$$$
>  <MOLECULE>
O=C1c2ccccc2-c2c1c1c(=O)[nH]c3ccccc3c1n2Cc1ccccc1

>  <CLASSIFICATION>
class 1

$$$$
>  <MOLECULE>
CN1C(=O)/C(=C\c2nc([P+](c3ccccc3)(c3ccccc3)c3ccccc3)c(N3CCOCC3)o2)SC1=S

>  <CLASSIFICATION>
class 0

$$$$
>  <MOLECULE>
COc1ccc2c(c1)CC[C@H](O)/C2=C/c1cc(OC)c(OC)c(OC)c1

>  <CLASSIFICATION>
class 1

$$$$
>  <MOLECULE>
Cc1c(-c2ccc(O)cc2)n(Cc2ccc(OCCN3CCCCCC3)cc2)c2ccc(O)cc12

>  <CLASSIFICATION>
class 0

$$$$
>  <MOLECULE>
COc1ccc(Nc2ncc(Br)c(NCCCNC(=O)C3CCCC3)n2)cc1

>  <CLASSIFICATION>
class 0

$$$$
>  <MOLECULE>
Cc1ccc(Nc2cc(N)nc(N)n2)cc1Cl

>  <CLASSIFICATION>
class 0

$$$$
>  <MOLECULE>
COc1ccc(C(=O)Nc2cccc(-c3cc(=O)c4c(OC)c(OC)c(OC)cc4o3)c2)cc1

>  <CLASSIFICATION>
class 0

$$$$
>  <MOLECULE>
COc1ccc(C(C)=O)cc1S(=O)(=O)Nc1c(N)nc(SC)[nH]c1=O

>  <CLASSIFICATION>
class 0

$$$$
>  <MOLECULE>
COc1ccc2c(c1OC)CO[C@@H]2[C@H]1c2c(cc3c(c2OC)OCO3)CCN1S(=O)(=O)c1cn(C)cn1

>  <CLASSIFICATION>
class 1

$$$$
>  <MOLECULE>
CC(C)(Sc1cc(C(C)(C)C)c(OC(=O)CCCC(=O)O)c(C(C)(C)C)c1)Sc1cc(C(C)(C)C)c(OC(=O)CCCC(=O)O)c(C(C)(C)C)c1

>  <CLASSIFICATION>
class 0

$$$$
>  <MOLECULE>
O=C(CN1C(=O)S/C(=C\C(Cl)=C\c2ccccc2)C1=O)NCCc1ccc(O)cc1

>  <CLASSIFICATION>
class 0

$$$$
>  <MOLECULE>
COc1ccc(CN2c3ccccc3Sc3ccccc32)cc1F

>  <CLASSIFICATION>
class 1

$$$$
>  <MOLECULE>
N#Cc1c(-c2ccccc2)cc(-c2ccccc2)n(CCCC(=O)Nc2ccccc2N)c1=O

>  <CLASSIFICATION>
class 1

$$$$
>  <MOLECULE>
O=C1NC(=O)C(Cc2ccc(OCc3ccc(-c4ccc(Cl)cc4Cl)cc3)cc2)S1 (stereo not given)

>  <CLASSIFICATION>
class 0

$$$$
>  <MOLECULE>
Ic1ccc(OCCCCn2ccnc2)cc1

>  <CLASSIFICATION>
class 0

$$$$
>  <MOLECULE>
O=C(N/N=C/c1ccc(Cl)cc1)c1[nH]c2ccc(Cl)cc2c1-c1ccccc1

>  <CLASSIFICATION>
class 0

$$$$
>  <MOLECULE>
Cc1sc2nc(NCCc3c[nH]c4ccc(Cl)cc34)[nH]c(=O)c2c1C

>  <CLASSIFICATION>
class 0

$$$$
>  <MOLECULE>
CCN1C(=O)N(CC)C2C1NN=c1s/c(=C\c3ccccc3F)c(=O)n12 (stereo not given)

>  <CLASSIFICATION>
class 1

$$$$
>  <MOLECULE>
COc1ccc(OC)c(Nc2nnc(-c3ccc(O)c(OC)c3)o2)c1

>  <CLASSIFICATION>
class 1

$$$$
>  <MOLECULE>
CC1=C2[C@@H](CC1)[C@]1(C)O[C@@](C(C)C)(C[C@H]1OC(=O)[C@H](C)O)[C@H]2OC(=O)/C=C/c1ccccc1

>  <CLASSIFICATION>
class 1

$$$$
>  <MOLECULE>
COc1cc2c(c(OC)c1OC)CCC(c1cccc(NC(=O)c3ccc(Br)cc3)c1)O2 (stereo not given)

>  <CLASSIFICATION>
class 0

$$$$
